- system_under_test: HLA-A*02:03
- protocol_details: IEDB peptide-MHC binding, purified MHC/competitive/radioactivity; filed as Kd, often an IC50 or EC50 that approximates it; bounds were set here for any values at or beyond the usual limits of such assays
- condition_set: source organism: Vaccinia virus Copenhagen
measurement_label: Kd (nM)
Please state the figure in nM; there is no need to write the unit.

Query Kd on HLA-A*02:03 for ILSCIFAFI
3.08

* * *

- system_under_test: HLA-B*15:01
- protocol_details: IEDB peptide-MHC binding, purified MHC/competitive/radioactivity; filed as Kd, often an IC50 or EC50 that approximates it; bounds were set here for any values at or beyond the usual limits of such assays
- condition_set: source organism: Dengue virus 2 Jamaica/1409/1983
measurement_label: Kd (nM)
Please respond with the number in nM and leave the unit unwritten.

Fill in the blank: the reported Kd of FQRALIFILL is ____.
117

Quick one: Kd of QMSSGNLLF ?
6.83

* * *

- system_under_test: HLA-A*26:01
- protocol_details: IEDB peptide-MHC binding, purified MHC/competitive/radioactivity; filed as Kd, often an IC50 or EC50 that approximates it; bounds were set here for any values at or beyond the usual limits of such assays
- condition_set: source organism: Dengue virus 4 Philippines/H241/1956
measurement_label: Kd (nM)
Record the value in nM, omitting the unit from your answer.

# Kd lookup, item LTEIASLPTY
899

* * *

- system_under_test: HLA-A*02:17
- protocol_details: IEDB peptide-MHC binding, purified MHC/competitive/radioactivity; filed as Kd, often an IC50 or EC50 that approximates it; bounds were set here for any values at or beyond the usual limits of such assays
- condition_set: source organism: Dengue virus 3 China/80-2/1980
measurement_label: Kd (µM)
Lab book: enter the figure in µM, no units written.

Kd lookup needed for VMAVGLVSI , thanks.
3.2

Look at this sequence and give its reported Kd. LLLLGLMILL
0.0949

Data request, read-out Kd, for YLEFEALGFL
0.0453

* * *

- system_under_test: HLA-B*39:01
- protocol_details: IEDB peptide-MHC binding, purified MHC/direct/fluorescence; filed as Kd, often an IC50 or EC50 that approximates it; bounds were set here for any values at or beyond the usual limits of such assays
- condition_set: source organism: Brucella suis 1330
measurement_label: Kd

Value lookup for Kd; key = QAHMGIAGL
≥ 20 µM

* * *

- system_under_test: HLA-C*06:02
- protocol_details: IEDB peptide-MHC binding, purified MHC/direct/fluorescence; filed as Kd, often an IC50 or EC50 that approximates it; bounds were set here for any values at or beyond the usual limits of such assays
- condition_set: source organism: Mus musculus
measurement_label: Kd

So what Kd did LWFRNHFVF get with HLA-C*06:02?
≥ 20 µM

* * *

- system_under_test: HLA-A*69:01
- protocol_details: IEDB peptide-MHC binding, purified MHC/direct/fluorescence; filed as Kd, often an IC50 or EC50 that approximates it; bounds were set here for any values at or beyond the usual limits of such assays
- condition_set: source organism: Bacillus anthracis
measurement_label: Kd (nM)
Give the value, in units of nM, as a plain number.

Query the reported Kd for HLA-A*69:01; item: LLDEPTNHL
105

* * *

- system_under_test: HLA-B*44:02
- protocol_details: IEDB peptide-MHC binding, purified MHC/competitive/radioactivity; filed as Kd, often an IC50 or EC50 that approximates it; bounds were set here for any values at or beyond the usual limits of such assays
- condition_set: source organism: Dengue virus 2 Jamaica/1409/1983
measurement_label: Kd (nM)
Field: numeric (nM). Do not append units.

Consider the worked cases shown below.
sequence_content: KEIGRMLNI
Kd / nM: 418

sequence_content: VEMGEAAGI
Kd / nM: 26.5

sequence_content: MEKYQLAVTI
Kd / nM: 331

Consider the additional sequence presented here.
Given the sequence EERVILAGPM , what is its reported Kd?
2280

Values were extracted from the Immune Epitope Database (IEDB).
